Biological target: LDB3, O75112
Sequence (O75112 1-94): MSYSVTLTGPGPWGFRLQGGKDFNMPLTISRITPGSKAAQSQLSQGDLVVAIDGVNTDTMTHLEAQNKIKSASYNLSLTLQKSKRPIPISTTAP
Test: holdup assay
Parameters: key: below the threshold = too weak to quantify, mostly under pKd 3.1 to 4
Conditions: plain residues with an end cap or a label only (N-terminal biotin on a linker: ado-ado)
attribute_measured: pKd

Known results for binders:
{"columns": ["binder", "pKd"],
 "data": [
  ["YLEPVLSSEL [ATP2A2, P16615;P16615-3]", "below the threshold"],
  ["SKENVQETQI [LRRC4B, Q9NT99]", "below the threshold"],
  ["LRSPRTPSEV [OR10G3, Q8NGC4]", "below the threshold"],
  ["PDGQCTVTEV [RNF146, Q9NTX7]", "below the threshold"],
  ["LKVPPEERLI [CRB2, Q5IJ48]", "below the threshold"],
  ["RRISSLESEV [GRIN2C, Q14957]", "below the threshold"],
  ["SAKVRTVTSV [RASL11B, Q9BPW5]", "below the threshold"],
  ["KKAPTNEFYA [SDC4, P31431]", "below the threshold"],
  ["PRAEAEDSFL [PDGFRB, P09619]", 3.67],
  ["FNSYSLTGYV [CLDN2, P57739]", "below the threshold"]
]}

Looking up NHSSSPETTA [TRMT13, Q9NUP7] , I found its pKd recorded as below the threshold

Looking up ETQVTAETVI [TMEM225B, P0DP42] , I found its pKd recorded as below the threshold

Looking up YYKRPVQEWV [MMP24, Q9Y5R2] , I found its pKd recorded as below the threshold

Looking up PEYLGLDVPV [ERBB2, P04626] , I found its pKd recorded as below the threshold

Looking up RKPKPSSSCC [RAB9A, P51151] , I found its pKd recorded as 3.51

Looking up EVNETDDTKM [KCNJ1, P48048] , I found its pKd recorded as below the threshold

Looking up IPLDGETEEL [MYOZ1, Q9NP98] , I found its pKd recorded as 4.46

Looking up SAAKVLTSMC [GHRHR, Q02643] , I found its pKd recorded as below the threshold

Looking up LPHPHSTTRV [NLGN2, Q8NFZ4] , I found its pKd recorded as below the threshold

Looking up DTTVPESEDL [MYOZ2, Q9NPC6] , I found its pKd recorded as 5.26

Looking up VRNLPESEEL [MYOZ3, Q8TDC0] , I found its pKd recorded as 5.19

Looking up TKGPRGPTRV [SAPCD1, Q5SSQ6] , I found its pKd recorded as below the threshold
